- tested system: SIRT1 (Homo sapiens)
- Sequence (Q96EB6 whole entry): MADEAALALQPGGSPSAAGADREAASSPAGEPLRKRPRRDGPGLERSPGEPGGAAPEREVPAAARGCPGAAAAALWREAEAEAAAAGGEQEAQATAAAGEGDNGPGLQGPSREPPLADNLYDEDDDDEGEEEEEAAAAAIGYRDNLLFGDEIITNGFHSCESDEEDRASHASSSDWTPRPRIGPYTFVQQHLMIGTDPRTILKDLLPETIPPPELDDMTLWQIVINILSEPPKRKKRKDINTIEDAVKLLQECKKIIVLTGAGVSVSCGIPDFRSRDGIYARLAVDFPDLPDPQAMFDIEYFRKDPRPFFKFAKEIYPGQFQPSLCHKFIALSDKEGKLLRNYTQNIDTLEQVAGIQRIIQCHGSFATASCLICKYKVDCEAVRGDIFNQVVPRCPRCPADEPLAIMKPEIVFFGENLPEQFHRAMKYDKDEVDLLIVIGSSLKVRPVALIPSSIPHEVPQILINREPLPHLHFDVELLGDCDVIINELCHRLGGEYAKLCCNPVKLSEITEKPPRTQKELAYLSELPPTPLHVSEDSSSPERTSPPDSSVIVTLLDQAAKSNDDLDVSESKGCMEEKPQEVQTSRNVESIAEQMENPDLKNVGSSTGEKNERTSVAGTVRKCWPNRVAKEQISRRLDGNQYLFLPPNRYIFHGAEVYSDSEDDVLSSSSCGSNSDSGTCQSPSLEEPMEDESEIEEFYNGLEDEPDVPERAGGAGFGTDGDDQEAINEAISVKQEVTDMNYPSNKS
- assay: Mass spectrometry based SIRT1 deacetylase activation assay (acetylated p53-derived peptide substrate)
- Type: biochemical
- protocol conditions: 0.5 μM peptide substrate, 120 μM βNAD+, 10 nM SIRT1, 25 minutes at 25° C.

compound	EC1.5
Cc1ccc(-c2nc3c(C(=O)Nc4cccc(CN5CCOCC5)n4)cccc3[nH]2)cn1	A (EC1.5<1.0 uM)
O=C(Nc1nc(CN2CCOCC2)cs1)c1cccc2[nH]c(-c3cccc(Cl)c3)nc12	B (EC1.5 1-25 uM)
O=C(Nc1ccccc1OCC(O)CO)c1cccc2[nH]c(-c3ccc(F)cc3C(F)(F)F)nc12 (stereo not shown)	B (EC1.5 1-25 uM)
O=C(Nc1cccc(CN2CCOCC2)n1)c1cccc2[nH]c(-c3ccc(F)cc3C(F)F)nc12	A (EC1.5<1.0 uM)
O=C(Nc1cccnc1)c1cc(N2CCOCC2)cc2[nH]c(-c3ccc(F)cc3C(F)(F)F)nc12	A (EC1.5<1.0 uM)
O=C(Nc1cccc(CN2CCOCC2)n1)c1cccc2[nH]c(-c3ccccc3F)nc12	A (EC1.5<1.0 uM)
CC1(C)CN(CCOc2ccccc2-c2nc3c(C(=O)Nc4ccccn4)cccc3[nH]2)CCO1	B (EC1.5 1-25 uM)
O=C(Nc1cccc(OCC(O)CO)c1)c1cccc2[nH]c(-c3cccnc3)nc12 (stereo not shown)	A (EC1.5<1.0 uM)
O=C(Nc1cccnn1)c1cncc2[nH]c(-c3cc(F)ccc3C(F)(F)F)nc12	A (EC1.5<1.0 uM)
O=C(Nc1nccs1)c1cc(N2CCOCC2)cc2[nH]c(-c3ccc(F)cc3C(F)F)nc12	A (EC1.5<1.0 uM)
O=C(Nc1cccnc1)c1cncc2[nH]c(-c3ccccc3C(F)(F)F)nc12	A (EC1.5<1.0 uM)
O=C(Nc1ccccn1)c1cccc2[nH]c(-c3cc(N4CC[C@H](F)C4)ccc3C(F)(F)F)nc12	B (EC1.5 1-25 uM)
O=C(Nc1cccc(OCC(O)CO)c1)c1cccc2[nH]c(-c3cc(F)ccc3C(F)(F)F)nc12 (stereo not shown) [Compound 741]	A (EC1.5<1.0 uM)
O=C(Nc1cccc(CN2CCCC2)n1)c1cccc2[nH]c(-c3cc(F)ccc3C(F)(F)F)nc12	A (EC1.5<1.0 uM)
O=C(Nc1nccs1)c1cncc2nc(-c3ccc(OC[C@@H](O)CO)cc3C(F)F)[nH]c12	A (EC1.5<1.0 uM)
